assayed_system: Protein cereblon/ALK tyrosine kinase receptor (Homo sapiens, UniProt Q9UM73+Q96SW2)
Sequence (Q96SW2 whole entry partner): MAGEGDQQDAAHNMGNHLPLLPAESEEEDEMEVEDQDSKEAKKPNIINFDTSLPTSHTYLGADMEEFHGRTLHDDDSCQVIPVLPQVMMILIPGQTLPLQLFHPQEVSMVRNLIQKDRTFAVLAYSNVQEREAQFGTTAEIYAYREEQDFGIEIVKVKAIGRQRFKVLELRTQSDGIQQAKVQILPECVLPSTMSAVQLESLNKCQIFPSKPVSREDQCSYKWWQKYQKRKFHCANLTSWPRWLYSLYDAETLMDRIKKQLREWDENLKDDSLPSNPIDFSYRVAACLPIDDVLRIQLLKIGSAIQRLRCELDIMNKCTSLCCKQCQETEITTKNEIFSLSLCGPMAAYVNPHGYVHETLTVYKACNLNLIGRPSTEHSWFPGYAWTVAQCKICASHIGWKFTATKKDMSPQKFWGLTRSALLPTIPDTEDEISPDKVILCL
Sequence (Q9UM73 19-1620 limits assumed): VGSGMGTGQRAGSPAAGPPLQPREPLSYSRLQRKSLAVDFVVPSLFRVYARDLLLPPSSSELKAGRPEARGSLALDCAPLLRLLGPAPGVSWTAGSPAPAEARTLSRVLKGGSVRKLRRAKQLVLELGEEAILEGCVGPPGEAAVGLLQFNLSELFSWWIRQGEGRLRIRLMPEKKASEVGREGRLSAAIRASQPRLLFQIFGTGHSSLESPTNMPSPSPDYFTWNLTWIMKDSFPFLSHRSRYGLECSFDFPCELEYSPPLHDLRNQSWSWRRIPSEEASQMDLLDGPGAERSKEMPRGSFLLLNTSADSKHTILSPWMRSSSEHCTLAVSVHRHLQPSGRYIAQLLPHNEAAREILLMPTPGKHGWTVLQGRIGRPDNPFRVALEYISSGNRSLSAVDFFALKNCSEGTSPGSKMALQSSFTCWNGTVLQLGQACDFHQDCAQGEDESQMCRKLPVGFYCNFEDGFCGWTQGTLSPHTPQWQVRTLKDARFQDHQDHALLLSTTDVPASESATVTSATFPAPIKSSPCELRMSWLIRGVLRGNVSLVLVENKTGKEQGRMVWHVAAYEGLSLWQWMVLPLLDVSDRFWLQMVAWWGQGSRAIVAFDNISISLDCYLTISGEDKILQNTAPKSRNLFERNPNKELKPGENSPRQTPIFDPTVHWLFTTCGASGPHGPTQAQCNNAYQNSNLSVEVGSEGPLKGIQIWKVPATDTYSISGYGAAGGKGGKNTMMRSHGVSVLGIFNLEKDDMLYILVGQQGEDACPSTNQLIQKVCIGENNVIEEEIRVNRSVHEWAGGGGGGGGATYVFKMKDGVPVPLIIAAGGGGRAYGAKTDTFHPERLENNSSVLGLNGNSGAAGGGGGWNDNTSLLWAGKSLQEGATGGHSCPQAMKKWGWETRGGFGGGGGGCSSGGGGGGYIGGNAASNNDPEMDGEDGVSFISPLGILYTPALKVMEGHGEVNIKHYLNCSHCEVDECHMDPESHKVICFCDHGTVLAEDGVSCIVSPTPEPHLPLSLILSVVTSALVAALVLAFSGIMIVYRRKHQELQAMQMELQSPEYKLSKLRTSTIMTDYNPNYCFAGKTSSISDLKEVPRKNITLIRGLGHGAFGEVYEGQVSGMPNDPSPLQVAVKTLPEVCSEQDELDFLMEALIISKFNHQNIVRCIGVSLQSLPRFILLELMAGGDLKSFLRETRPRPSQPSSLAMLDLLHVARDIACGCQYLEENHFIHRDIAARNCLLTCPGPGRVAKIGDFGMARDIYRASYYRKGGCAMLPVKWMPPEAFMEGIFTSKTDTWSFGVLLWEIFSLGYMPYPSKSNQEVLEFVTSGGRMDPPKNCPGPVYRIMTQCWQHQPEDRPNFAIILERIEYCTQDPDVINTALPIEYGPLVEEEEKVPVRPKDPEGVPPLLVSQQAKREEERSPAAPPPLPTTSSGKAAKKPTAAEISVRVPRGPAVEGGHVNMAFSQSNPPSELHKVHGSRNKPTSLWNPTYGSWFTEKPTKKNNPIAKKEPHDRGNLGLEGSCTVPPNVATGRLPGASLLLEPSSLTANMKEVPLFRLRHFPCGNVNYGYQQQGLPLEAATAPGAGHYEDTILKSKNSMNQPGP
test_protocol: Protac activity at CRBN/ALK in human SR cells assessed as protein abundance at 0.5 nM by Western blot analysis (reference value: 1)
Type: cell-based
Output True for records whose Activity is lower than 0.9, False for records at or above 0.9.

{"compound": "CCc1cc2c(cc1N1CCC(N3CCN(C(=O)CCOCCOCCOCCOCCNc4cccc5c4C(=O)N(C4CCC(=O)NC4=O)C5=O)CC3)CC1)C(C)(C)c1[nH]c3cc(C#N)ccc3c1C2=O (stereo unspecified)", "classification": "False"}
{"compound": "CCc1cc2c(cc1N1CCC(N3CCN(C(=O)CCCNc4cccc5c4C(=O)N(C4CCC(=O)NC4=O)C5=O)CC3)CC1)C(C)(C)c1[nH]c3cc(C#N)ccc3c1C2=O (stereo unspecified)", "classification": "True"}
{"compound": "CCc1cc2c(cc1N1CCC(N3CCN(C(=O)CNc4cccc5c4CN(C4CCC(=O)NC4=O)C5=O)CC3)CC1)C(C)(C)c1[nH]c3cc(C#N)ccc3c1C2=O (stereo unspecified)", "classification": "True"}
{"compound": "CCc1cc2c(cc1N1CCC(N3CCN(CCCCCC#Cc4cccc5c4CN(C4CCC(=O)NC4=O)C5=O)CC3)CC1)C(C)(C)c1[nH]c3cc(C#N)ccc3c1C2=O (stereo unspecified)", "classification": "False"}

Switching to the query record.
Take the compound CCc1cc2c(cc1N1CCN(C(=O)CNc3cccc4c3C(=O)N(C3CCC(=O)NC3=O)C4=O)CC1)C(C)(C)c1[nH]c3cc(C#N)ccc3c1C2=O (stereo unspecified) and say whether its Activity is less than 0.9.
False
